- Study system: T1, EsCas13d, nuclease-dead (Eubacterium siraeum, UniProt B0MS50, R295A;H300A;R849A;H854A)
- T1 sequence: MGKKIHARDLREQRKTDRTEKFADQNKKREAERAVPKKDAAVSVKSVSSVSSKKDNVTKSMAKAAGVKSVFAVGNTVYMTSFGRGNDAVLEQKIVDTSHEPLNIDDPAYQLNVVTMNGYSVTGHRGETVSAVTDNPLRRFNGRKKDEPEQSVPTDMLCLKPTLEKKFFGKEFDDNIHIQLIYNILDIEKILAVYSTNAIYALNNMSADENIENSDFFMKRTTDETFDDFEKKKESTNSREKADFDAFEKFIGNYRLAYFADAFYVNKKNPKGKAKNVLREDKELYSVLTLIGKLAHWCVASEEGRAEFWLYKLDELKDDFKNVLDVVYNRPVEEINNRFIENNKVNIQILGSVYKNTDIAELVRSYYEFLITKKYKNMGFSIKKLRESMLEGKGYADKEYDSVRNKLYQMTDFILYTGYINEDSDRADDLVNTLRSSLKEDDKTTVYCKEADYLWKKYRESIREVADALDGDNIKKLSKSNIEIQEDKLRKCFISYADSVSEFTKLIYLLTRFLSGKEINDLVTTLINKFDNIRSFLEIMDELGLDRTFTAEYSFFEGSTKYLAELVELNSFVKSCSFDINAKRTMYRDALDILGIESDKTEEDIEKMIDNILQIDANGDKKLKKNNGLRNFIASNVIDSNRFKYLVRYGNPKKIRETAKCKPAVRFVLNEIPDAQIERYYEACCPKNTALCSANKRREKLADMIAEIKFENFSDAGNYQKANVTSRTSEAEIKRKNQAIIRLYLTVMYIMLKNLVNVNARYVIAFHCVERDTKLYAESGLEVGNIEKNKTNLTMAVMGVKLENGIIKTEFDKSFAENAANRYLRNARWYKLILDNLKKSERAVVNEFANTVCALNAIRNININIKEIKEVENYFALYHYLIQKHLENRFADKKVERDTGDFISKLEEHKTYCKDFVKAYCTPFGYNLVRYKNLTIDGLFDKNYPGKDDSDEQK
- Procedure details: crRNA (strand 1, pre-loaded); Mg2+; 40 mM Tris-HCl pH 7.5, 150 mM NaCl, 6 mM MgCl2, 1 mM DTT, 0.1% Tween-20, 0.2 mg/ml BSA; 25 C; 10 min per concentration, then washed
- Run parameters: tags: His6-TwinStrep-SUMO cleaved; N-terminal SNAP kept (SNAP-Surface 488); label: 3' end held by stalled T7 RNA polymerase
Assignment: determine reported Kd for the given binders.

Tell me measured Kd for target 1 insA 3' of 4,insC 3' of 3 (mixed) RNA 1: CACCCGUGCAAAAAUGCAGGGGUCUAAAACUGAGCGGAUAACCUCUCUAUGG RNA 2: GGGAAUGGAUCCACAUCUACGAAUUCGUACCAUAGAGAGGUUAUCCGCAUCCACCGAGAUCGGAAGAGCACACGU please.
19.9 nM

Identify Kd associated with the binder target 1 MT 5'PFS GGG 3'PFS AGC (mixed) RNA 1: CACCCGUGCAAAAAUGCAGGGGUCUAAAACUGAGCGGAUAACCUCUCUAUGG RNA 2: GGGAAUGGAUCCACAUCUACGAAUUCGGGCCAUAGAGAGGUUAUCCGCUCAAGCAGAUCGGAAGAGCACACGU
20.5 nM

Complete the entry with Kd for target 1 MT 5'PFS UCC 3'PFS CUC (mixed) RNA 1: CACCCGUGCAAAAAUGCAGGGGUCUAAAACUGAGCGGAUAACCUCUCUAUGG RNA 2: GGGAAUGGAUCCACAUCUACGAAUUCUCCCCAUAGAGAGGUUAUCCGCUCACUCAGAUCGGAAGAGCACACGU
~24 nM

Indicate its recorded Kd; the binder in question is target 1 G13A,C21A (mixed) RNA 1: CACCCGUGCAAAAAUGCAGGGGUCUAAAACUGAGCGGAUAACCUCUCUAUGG RNA 2: GGGAAUGGAUCCACAUCUACGAAUUCGUACAAUAGAGAAGUUAUCCGCUCACCGAGAUCGGAAGAGCACACGU
35 nM

Return Kd for the following binder: target 1 A14G,U19C (mixed) RNA 1: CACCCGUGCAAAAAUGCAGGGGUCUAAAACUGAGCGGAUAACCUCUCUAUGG RNA 2: GGGAAUGGAUCCACAUCUACGAAUUCGUACCACAGAGGGGUUAUCCGCUCACCGAGAUCGGAAGAGCACACGU
63 nM

Give the reported Kd for this binder. target 1 MT 5'PFS GGG 3'PFS GCA (mixed) RNA 1: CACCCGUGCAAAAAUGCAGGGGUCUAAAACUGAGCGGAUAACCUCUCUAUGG RNA 2: GGGAAUGGAUCCACAUCUACGAAUUCGGGCCAUAGAGAGGUUAUCCGCUCAGCAAGAUCGGAAGAGCACACGU
36 nM

Give Kd for the following binder: target 1 C7A,U10G (mixed) RNA 1: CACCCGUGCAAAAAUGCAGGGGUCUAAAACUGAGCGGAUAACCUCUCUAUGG RNA 2: GGGAAUGGAUCCACAUCUACGAAUUCGUACCAUAGAGAGGUGAUACGCUCACCGAGAUCGGAAGAGCACACGU
9.7 nM

Give reported Kd value for target 1 insA 3' of 15 (mixed) RNA 1: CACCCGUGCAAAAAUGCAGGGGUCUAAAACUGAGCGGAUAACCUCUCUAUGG RNA 2: GGGAAUGGAUCCACAUCUACGAAUUCGUACCAUAGAGAAGGUUAUCCGCUCACCGAGAUCGGAAGAGCACACGU
5.9 nM

Tell us which Kd value is on record for target 1 insG 3' of 16,insU 3' of 7 (mixed) RNA 1: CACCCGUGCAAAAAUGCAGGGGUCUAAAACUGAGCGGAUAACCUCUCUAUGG RNA 2: GGGAAUGGAUCCACAUCUACGAAUUCGUACCAUAGAGGAGGUUAUCUCGCUCACCGAGAUCGGAAGAGCACACGU
22.8 nM
